Entry source: paper PMC12114598

# Tested on: T. cruzi amastigotes, A1 strain
# Experiment summary: Amastigote assay, A1 strain
# Format: cell-based
# Recorded conditions: Trypanosoma cruzi; in J774.2 macrophages, 48 h, MTT; ± SD; read-out: Amastigote (Ex Vivo) A1 IC50
Measured quantity: pIC50
Note on pIC50: it is the negative log10 of concentration, concentration in mol/L.

# Molecule, pIC50
measured = [
    ("CC1CS(=O)(=O)CCN1/N=C/c1ccc([N+](=O)[O-])o1 (centres unmarked)", 4.26),
    ("CCCCNC(=O)NS(=O)(=O)c1ccc(C)cc1 [Tol, tolbutamide]", 4.35),
    ("Cc1ccc(S(=O)(=O)NC(=O)NN2CC3CCCC3C2)cc1 (centres unmarked) [Glic, gliclazide]", 4.91),
]

Enter recorded pIC50 with T. cruzi amastigotes, A1 strain for CCC1=C(C)CN(C(=O)NCCc2ccc(S(=O)(=O)NC(=O)N[C@H]3CC[C@H](C)CC3)cc2)C1=O [Glim, glimepiride] here.
4.30

###

# Experiment summary: in vitro
# Assay type: cell-based
# Recorded conditions: mouse
# Protocol: Cytotoxicity assays were performed using the methodology proposed by Domínguez-Diaz et al. on a mouse macrophage cell line (J774.2). […] The metabolic activity of the cell was determined following the MTT method, the % cell viability was calculated, and the median lethal concentration (LC50) was determined by Probit analysis. Analyses were performed in triplicate, and the Selectivity Index (SI) for the three parasitic stages in the NINOA and A1 strains (CC50/IC50) was calculated.
Measured quantity: CC50 at 48 h

# Compound, Val
measured = [
    ("CCCCNC(=O)NS(=O)(=O)c1ccc(C)cc1 [Tol, tolbutamide]", "> 200 µM"),
]

Give the reported CC50 at 48 h for this compound. CC(=O)c1ccc(S(=O)(=O)NC(=O)NC2CCCCC2)cc1 [Ace, acetohexamide]
> 200 µM

Please give measured CC50 at 48 h of the following entry: Cc1ccc(S(=O)(=O)NC(=O)NN2CC3CCCC3C2)cc1 (stereo not drawn) [Glic, gliclazide]
> 200 µM
